B1: EEHEE_rd3_0130 (parent)
chain: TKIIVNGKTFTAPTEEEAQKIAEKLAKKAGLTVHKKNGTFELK

variants of: B1; assay: folding stability dG (cDNA display proteolysis); higher = more stable; settings: PBS, room temperature
Categories are assigned from the measured folding stability dG using these intervals: low group = under 0.1 kcal/mol, middle group = from 0.1 kcal/mol up to 0.7 kcal/mol, high group = 0.7 kcal/mol and over

>  <residue-change>
G38Q

>  <assigned-class>
low group

$$$$
>  <residue-change>
G7C

>  <assigned-class>
high group

$$$$
>  <residue-change>
Q19V

>  <assigned-class>
middle group

$$$$
>  <residue-change>
T1Q

>  <assigned-class>
middle group

$$$$
>  <residue-change>
E15D

>  <assigned-class>
middle group

$$$$
>  <residue-change>
F40R

>  <assigned-class>
low group

$$$$
>  <residue-change>
T14P

>  <assigned-class>
low group

$$$$
>  <residue-change>
L31C

>  <assigned-class>
low group

$$$$
>  <residue-change>
I3M

>  <assigned-class>
low group

$$$$
>  <residue-change>
T39W

>  <assigned-class>
high group

$$$$
>  <residue-change>
T14V

>  <assigned-class>
low group

$$$$
>  <residue-change>
I21A

>  <assigned-class>
low group

$$$$
>  <residue-change>
A12W

>  <assigned-class>
high group

$$$$
>  <residue-change>
E15H

>  <assigned-class>
middle group

$$$$
>  <residue-change>
A18N

>  <assigned-class>
low group

$$$$
>  <residue-change>
E41P

>  <assigned-class>
low group

$$$$
>  <residue-change>
Q19T

>  <assigned-class>
middle group

$$$$
>  <residue-change>
V33F

>  <assigned-class>
middle group

$$$$
>  <residue-change>
P13G

>  <assigned-class>
high group

$$$$
>  <residue-change>
T39I

>  <assigned-class>
high group

$$$$
>  <residue-change>
T14H

>  <assigned-class>
low group

$$$$
>  <residue-change>
F40H

>  <assigned-class>
low group

$$$$
>  <residue-change>
K2I

>  <assigned-class>
high group

$$$$
>  <residue-change>
H34G

>  <assigned-class>
middle group

$$$$
>  <residue-change>
K20D

>  <assigned-class>
middle group

$$$$
>  <residue-change>
T11G

>  <assigned-class>
low group

$$$$
>  <residue-change>
N6I

>  <assigned-class>
middle group

$$$$
>  <residue-change>
G7I

>  <assigned-class>
low group

$$$$
>  <residue-change>
N6T

>  <assigned-class>
low group

$$$$
>  <residue-change>
I21R

>  <assigned-class>
middle group

$$$$
>  <residue-change>
V5E

>  <assigned-class>
low group

$$$$
>  <residue-change>
K8A

>  <assigned-class>
middle group

$$$$
>  <residue-change>
N6R

>  <assigned-class>
middle group

$$$$
>  <residue-change>
T39Q

>  <assigned-class>
high group

$$$$
>  <residue-change>
A18G

>  <assigned-class>
middle group

$$$$
>  <residue-change>
F10Y

>  <assigned-class>
high group

$$$$
>  <residue-change>
E23N

>  <assigned-class>
high group

$$$$
>  <residue-change>
F10V

>  <assigned-class>
low group

$$$$
>  <residue-change>
F40W

>  <assigned-class>
middle group

$$$$
>  <residue-change>
T14L

>  <assigned-class>
low group

$$$$
>  <residue-change>
K36M

>  <assigned-class>
high group

$$$$
>  <residue-change>
F40V

>  <assigned-class>
middle group

$$$$
>  <residue-change>
K27I

>  <assigned-class>
middle group

$$$$
>  <residue-change>
E41D

>  <assigned-class>
low group

$$$$
>  <residue-change>
N37M

>  <assigned-class>
low group

$$$$
>  <residue-change>
T11C

>  <assigned-class>
high group

$$$$
>  <residue-change>
E41M

>  <assigned-class>
middle group

$$$$
>  <residue-change>
K20Q

>  <assigned-class>
high group

$$$$
>  <residue-change>
H34A

>  <assigned-class>
middle group

$$$$
>  <residue-change>
T9G

>  <assigned-class>
low group

$$$$
>  <residue-change>
T11I

>  <assigned-class>
high group

$$$$
>  <residue-change>
A22S

>  <assigned-class>
middle group

$$$$
>  <residue-change>
A26K

>  <assigned-class>
low group

$$$$
>  <residue-change>
L25I

>  <assigned-class>
high group

$$$$
>  <residue-change>
G7W

>  <assigned-class>
middle group

$$$$
>  <residue-change>
K43P

>  <assigned-class>
low group

$$$$
>  <residue-change>
E15L

>  <assigned-class>
high group

$$$$
>  <residue-change>
T32S

>  <assigned-class>
middle group

$$$$
>  <residue-change>
E16F

>  <assigned-class>
high group

$$$$
>  <residue-change>
T11L

>  <assigned-class>
high group

$$$$
>  <residue-change>
T9V

>  <assigned-class>
high group

$$$$
>  <residue-change>
N6K

>  <assigned-class>
middle group

$$$$
>  <residue-change>
I21Q

>  <assigned-class>
low group

$$$$
>  <residue-change>
K43D

>  <assigned-class>
middle group

$$$$
>  <residue-change>
N37C

>  <assigned-class>
high group

$$$$
>  <residue-change>
A12Y

>  <assigned-class>
high group

$$$$
>  <residue-change>
H34D

>  <assigned-class>
middle group

$$$$
>  <residue-change>
E15K

>  <assigned-class>
middle group

$$$$
>  <residue-change>
T39G

>  <assigned-class>
high group

$$$$
>  <residue-change>
K8H

>  <assigned-class>
high group

$$$$
>  <residue-change>
A22H

>  <assigned-class>
low group

$$$$
>  <residue-change>
E16R

>  <assigned-class>
high group

$$$$
>  <residue-change>
K8M

>  <assigned-class>
high group

$$$$
>  <residue-change>
K27W

>  <assigned-class>
high group

$$$$
>  <residue-change>
V5Y

>  <assigned-class>
high group

$$$$
>  <residue-change>
T32P

>  <assigned-class>
low group

$$$$
>  <residue-change>
E23F

>  <assigned-class>
high group

$$$$
>  <residue-change>
T32G

>  <assigned-class>
low group

$$$$
>  <residue-change>
P13V

>  <assigned-class>
middle group

$$$$
>  <residue-change>
L31V

>  <assigned-class>
low group

$$$$
>  <residue-change>
T9M

>  <assigned-class>
middle group

$$$$
>  <residue-change>
K20F

>  <assigned-class>
high group

$$$$
>  <residue-change>
T1V

>  <assigned-class>
high group

$$$$
>  <residue-change>
N6C

>  <assigned-class>
high group

$$$$
>  <residue-change>
N37K

>  <assigned-class>
middle group

$$$$
>  <residue-change>
G30R

>  <assigned-class>
low group

$$$$
>  <residue-change>
L42T

>  <assigned-class>
middle group

$$$$
>  <residue-change>
A12E

>  <assigned-class>
low group

$$$$
>  <residue-change>
H34Y

>  <assigned-class>
high group

$$$$
>  <residue-change>
G30W

>  <assigned-class>
low group

$$$$
